tested on: Wolbachia pipientis; test: Anti-Wolbachia Cell-Based Screen; format: functional; design: scale not given: in the data most compounds retested in dose-response had high values; conditions: 5 µM
About 13,000 (27%) of roughly 48,000 compounds showed an effect of 50% or more. This is one part of the list.
value-kind: Percent Effect (%)
Unit % implied. Number only.

Known results for compounds:
O=C(CC1OCCc2ccsc21)NCC1CC1 (configuration not stated) :: -1.416
Cc1ccnn1CCN1CCCC2(CCC(=O)N(C3CCCC3)C2)C1 (configuration not stated) :: 107.9
O=C1CCCN1C1CCCN(CCOc2ccc(F)cc2)C1 (configuration not stated) :: -5.922

Return Percent Effect for the following compound: Cc1c(C(=O)NCCCS(C)(=O)=O)cccc1-c1ccccn1
78.39

Specify measured Percent Effect for Cc1c(I)cccc1C(=O)NCc1ncc[nH]1 .
-7.865

Identify measured Percent Effect associated with O=C1CCC2(CCN(Cc3cc(F)ccc3Cl)CC2)CN1C1CCCC1
-0.02537

###

system: Wolbachia pipientis; assay: Anti-Wolbachia Cell-Based Screen; type: functional; parameters: scale not given: in the data most compounds retested in dose-response had high values; settings: 5 µM
Out of some 48,000 compounds screened, about 13,000 (27%) showed an effect of 50% or more. The list shows a part of the results.
# Percent Effect per entry
Report the value in % with no unit label.

Here is how some molecules turned out for Percent Effect.
Cc1cc(CNCC2CCCN(C(=O)OC(C)(C)C)C2)no1 (stereo not given) :: -1.865
CN(C)C(=O)c1cccnc1-c1ccc2c(c1)OCO2 :: -0.5608
Cc1csc(CNc2cnn(CC(F)(F)F)c2)n1 :: 0.5328
COc1ccc(-c2nc(CN3CCOCS3(=O)=O)c(C)o2)cc1 :: 1.396
CN1CC(=O)N(C2CCNCC2)Cc2c(NCC(C)(C)C)ncnc21 :: 106.7
CCN(CC)Cc1ccc(CNC(=O)C(C)(C)n2cc(Br)cn2)cc1 :: 25.74
NC(=O)CCC(=O)N1CCc2[nH]nc(-c3ccc4c(c3)OCO4)c2C1 :: -2.811
O=C(O)C(F)(F)F.O=C(O)C(F)(F)F.c1ccc(O[C@H]2CO[C@@]3(CCN(Cc4ccc5c(c4)OCO5)C3)C2)nc1 :: 2.667

Give Percent Effect for OCc1ccc(-c2nccn2CCc2nc3c(s2)CCCC3)o1 tested on Wolbachia pipientis.
-5.43

State Percent Effect on Wolbachia pipientis. Entry: CNCc1nc(-c2ccc3c(c2)OCO3)c[nH]1.Cl.Cl
-0.9226

Provide the reported Percent Effect (system: Wolbachia pipientis) for CC(NC(=O)N1CCSC(C)(C)C1)c1noc(-c2ccccc2)n1 (stereo not given)
-9.511

Enter measured Percent Effect, system Wolbachia pipientis, for the molecule shown: Cc1cccc(CC(=O)NS(=O)(=O)c2ccc(F)c(F)c2)c1
-13.3

Report Percent Effect under test system Wolbachia pipientis for COCC(=O)N1CC(=O)c2sc(Nc3ccc(F)cc3F)nc2C1 .
92.12

Tell me its Percent Effect on Wolbachia pipientis: Cn1cc(CN2CCC[C@]3(C[C@@H](Oc4ncccc4F)CO3)C2)cn1.O=C(O)C(F)(F)F.O=C(O)C(F)(F)F
104.4

Give Percent Effect; test system Wolbachia pipientis; molecule CCOc1ccc(-c2ccc3c(c2)OCO3)cc1C(N)=O
-6.962

Answer with Percent Effect of COc1ccccc1CC1CCCN(CCC#N)C1 (stereo not given) measured for Wolbachia pipientis.
-6.976

Report value only: Percent Effect, Wolbachia pipientis, CN(C)S(=O)(=O)N1CC[C@]2(C[C@H](Oc3ncccc3F)CO2)C1.O=C(O)C(F)(F)F
-14.15

Retrieve Percent Effect on Wolbachia pipientis; query O=C(NC1CCCC1)O[C@H]1COCCN(c2nc3ccccc3s2)C1
3.317

Give Wolbachia pipientis Percent Effect for the following molecule: Cc1nc(N2CCCC2C(=O)NCc2ccsc2)nc2ccccc12 (stereo not given)
-0.4338

Fill in Percent Effect for Cc1ccccc1CN1CCC2(CC1)CN(S(=O)(=O)c1ccccc1)C2.O=C(O)C(F)(F)F tested with Wolbachia pipientis.
-17.23

Supply Percent Effect measured with Wolbachia pipientis for Cc1cnn(CCNCc2ccc(OCC(N)=O)cc2)c1 .
-9.498

Provide the reported Percent Effect (system: Wolbachia pipientis) for CC(C)CC(=O)N1CC(=O)c2sc(Nc3ccc(F)cc3F)nc2C1
102.3

// output Percent Effect; input Cc1noc(C2CCN(C(=O)c3ccc(N(C)C)nc3)CC2)n1 ; system Wolbachia pipientis
-12.04

Print Wolbachia pipientis Percent Effect for COc1ccccc1Nc1nc2c(s1)C(=O)CN(C(=O)CC(C)C)C2 .
106.8

Please indicate recorded Percent Effect of CCCn1cc(NC(=O)Nc2ccc(F)c(C(=O)NC)c2)cn1 measured with Wolbachia pipientis.
109.9

Give reported Percent Effect for CCC(C)CNC(=O)[C@@H]1CCCN1c1nccc(Nc2ccccc2)n1 (stereo not given in full) (Wolbachia pipientis)
83.24

Provide Percent Effect, recorded with Wolbachia pipientis, of CSCCc1n[nH]c2c1CN(S(=O)(=O)c1c(C)nn(C)c1C)CC2
-3.086

Report value: Percent Effect, system: Wolbachia pipientis, molecule: Cc1csc(CNc2cnn(CC(C)C)c2)n1
-6.579

State recorded Percent Effect with Wolbachia pipientis, entry O=C(CSc1nccc(-c2ccc3c(c2)OCO3)n1)N1CCOCC1 , no comment.
110.7
